Listed compounds paired with reported Euclidean distance
tested on: A549; experiment: Euclidean distance of Cell Painting phenotypic profile (signed KS, 77 features) to DMSO centroid (dimensionless distance); 5 or 10 uM (library dependent); higher = stronger phenotypic change vs DMSO (phenoactivity); conditions: 48 h
Structures can show the parent of a compound that is named as a salt.

Known results for compounds:
Query: For the compound shown here, C#CCN[C@@H]1CCc2ccccc21 [Rasagiline Mesylate] , give the reported Euclidean distance.
Result: 0.608

Query: For the compound shown here, CC(C)COc1ccc(CNC(=O)N(Cc2ccc(F)cc2)C2CCN(C)CC2)cc1 [Pimavanserin] , give the reported Euclidean distance.
Result: 4.29

Query: For the compound shown here, O=C(O)P(=O)(O)O [Foscarnet Sodium] , give the reported Euclidean distance.
Result: 0.762

Query: For the compound shown here, CC/C(=C(\c1ccccc1)c1ccc(OCCN(C)C)cc1)c1ccccc1 [Tamoxifen Citrate] , give the reported Euclidean distance.
Result: 2.39

Query compound follows.
Query: For the compound shown here, CN(C)CCOC(c1ccccc1)c1ccccc1.Cn1c(=O)c2[nH]c(Cl)nc2n(C)c1=O [Dimenhydrinate] , give the reported Euclidean distance.
Result: 1

----------
test system: DU145; assay: Euclidean distance of Cell Painting phenotypic profile (signed KS, 77 features) to DMSO centroid (dimensionless distance); 5 or 10 uM (library dependent); higher = stronger phenotypic change vs DMSO (phenoactivity); conditions: 48 h
Counter-ions that a name gives are not always drawn.
readout type: Euclidean distance
Lab note: jot down the number only; don't add units.

Known results for compounds:
Query: For the compound shown here, N[C@H]1CONC1=O , give the reported Euclidean distance.
Result: 1.03

Query: For the compound shown here, OCc1ccc(-c2ccc(-c3ccc(CO)s3)o2)s1 , give the reported Euclidean distance.
Result: 1.44

Query: For the compound shown here, CC(C)NCC(O)COc1ccc(CCOCC2CC2)cc1 (configuration not stated) , give the reported Euclidean distance.
Result: 0.799

Query: For the compound shown here, C[C@]12C[C@H](O)[C@H]3[C@@H](CCC4=CC(=O)CC[C@@]43C)[C@@H]1CC[C@@H]2C(=O)CO , give the reported Euclidean distance.
Result: 1.47

Query: For the compound shown here, CC(C)(O)CC[C@@H](O)[C@](C)(O)[C@H]1CC[C@@]2(O)C3=CC(=O)[C@@H]4C[C@@H](O)[C@@H](O)C[C@]4(C)[C@H]3CC[C@]12C [20-Hydroxyecdysone] , give the reported Euclidean distance.
Result: 1.19

***
Query: For the compound shown here, CC(C)NCC(O)c1ccc(O)c(O)c1 (configuration not stated) [Isoproterenol sulfate dihydrate] , give the reported Euclidean distance.
Result: 2.58

Query: For the compound shown here, CCOC(=O)[C@H](CCc1ccccc1)N[C@@H](C)C(=O)N1[C@H](C(=O)O)C[C@H]2CCCC[C@@H]21 , give the reported Euclidean distance.
Result: 0.864

Query: For the compound shown here, O=C1CN(/N=C/c2ccc(-c3ccc([N+](=O)[O-])cc3)o2)C(=O)N1 [Dantrolene sodium hemiheptahydrate] , give the reported Euclidean distance.
Result: 1.67

Query: For the compound shown here, CCNC(=O)Nc1ccc(-c2nc3c(c(N4CCOC[C@@H]4C)n2)CCN(C2COC2)C3)cc1 , give the reported Euclidean distance.
Result: 1.78

Query: For the compound shown here, CN1CCC(=C2c3ccccc3CCc3cccnc32)CC1 [Azatadine dimaleate] , give the reported Euclidean distance.
Result: 0.544

----------
system: A549; assay: Euclidean distance of Cell Painting phenotypic profile (signed KS, 77 features) to DMSO centroid (dimensionless distance); 5 or 10 uM (library dependent); higher = stronger phenotypic change vs DMSO (phenoactivity); conditions: 48 h
Listed molecules paired with reported Euclidean distance
Lab note: jot down the number only; don't add units.

Query: For the molecule shown here, CC(=O)N[C@H]1[C@H]([C@H](O)[C@H](O)CO)OC(C(=O)O)=C[C@@H]1NC(=N)N , give the reported Euclidean distance.
Result: 1

Query: For the molecule shown here, CCC(c1ccccc1)c1c(O)c2ccccc2oc1=O (centres undefined) , give the reported Euclidean distance.
Result: 1.11

Query: For the molecule shown here, Cc1cc(C#N)cc(C)c1Oc1nc(Nc2ccc(C#N)cc2)nc(N)c1Br , give the reported Euclidean distance.
Result: 2.85

Query molecule follows.
Query: For the molecule shown here, O=C(O[C@@H]1Cc2c(O)cc(O)cc2O[C@@H]1c1ccc(O)c(O)c1)c1cc(O)c(O)c(O)c1 [(-)-Epicatechin gallate] , give the reported Euclidean distance.
Result: 0.725

----------
system: DU145; assay: Euclidean distance of Cell Painting phenotypic profile (signed KS, 77 features) to DMSO centroid (dimensionless distance); 5 or 10 uM (library dependent); higher = stronger phenotypic change vs DMSO (phenoactivity); conditions: 48 h
readout type: Euclidean distance
Lab note: jot down the number only; don't add units.

Known results for molecules:
Query: For the molecule shown here, Cc1nc(N)sc1-c1ccnc(Nc2ccc(N3CCOCC3)cc2)n1 , give the reported Euclidean distance.
Result: 1.18

Query: For the molecule shown here, C[C@]1(Cn2ccnn2)[C@H](C(=O)O)N2C(=O)C[C@H]2S1(=O)=O [Tazobactam] , give the reported Euclidean distance.
Result: 0.78

Query: For the molecule shown here, O=C(NC(NC(=S)Nc1ccc(F)c([N+](=O)[O-])c1)C(Cl)(Cl)Cl)C(c1ccccc1)c1ccccc1 (centres undefined) , give the reported Euclidean distance.
Result: 1.38

Query molecule follows.
Query: For the molecule shown here, O=C(O[C@@H]1Cc2c(O)cc(O)cc2O[C@@H]1c1ccc(O)c(O)c1)c1cc(O)c(O)c(O)c1 [(-)-Epicatechin gallate] , give the reported Euclidean distance.
Result: 1.16

----------
test system: DU145; test: Euclidean distance of Cell Painting phenotypic profile (signed KS, 77 features) to DMSO centroid (dimensionless distance); 5 or 10 uM (library dependent); higher = stronger phenotypic change vs DMSO (phenoactivity); conditions: 48 h
Counter-ions that a name gives are not always drawn.
Listed compounds paired with reported Euclidean distance
Lab note: jot down the number only; don't add units.

Known results for compounds:
Query: For the compound shown here, C[C@@H](N)[C@H]1CC[C@H](C(=O)Nc2ccncc2)CC1 , give the reported Euclidean distance.
Result: 3.45

Query: For the compound shown here, CCC[C@@H]1C[C@@H](C(=O)N[C@@H]([C@H]2O[C@H](SC)[C@H](O)[C@@H](O)[C@H]2O)[C@H](C)Cl)N(C)C1 [Clindamycin HCl] , give the reported Euclidean distance.
Result: 0.99

Query: For the compound shown here, COc1cc(NS(=O)(=O)c2ccc(N)cc2)ncn1 [Sulfamonomethoxine] , give the reported Euclidean distance.
Result: 0.778

Query: For the compound shown here, CC(C)(C#N)c1ccc(N2C(=O)OCc3cnc4ccc(-c5cnc6ccccc6c5)cc4c32)cc1 , give the reported Euclidean distance.
Result: 0.959

Query: For the compound shown here, COc1ccc(CN2C3CC2CN(c2ccc(-c4cc(OCC(C)(C)O)cn5ncc(C#N)c45)cn2)C3)cn1 [Selpercatinib (LOXO-292. ARRY-192)] , give the reported Euclidean distance.
Result: 0.961

Query: For the compound shown here, CO[C@@H](C)Cn1c(=O)n(C)c2cnc3ccc(-c4cncc(C(C)(C)O)c4)cc3c21 , give the reported Euclidean distance.
Result: 2.18

Query: For the compound shown here, CCC(=O)O[C@H]1[C@H](O[C@@H]2[C@@H](C)[C@H](O[C@H]3C[C@@](C)(OC)[C@@H](O)[C@H](C)O3)[C@@H](C)C(=O)O[C@H](CC)[C@@](C)(O)[C@H](O)[C@@H](C)C(=O)[C@H](C)C[C@@]2(C)O)O[C@H](C)C[C@@H]1N(C)C [Erythromycin estolate] , give the reported Euclidean distance.
Result: 1.77

Query: For the compound shown here, Cl.NCCCC[C@H](N)C(=O)O [L-Lysine hydrochloride] , give the reported Euclidean distance.
Result: 0.836

Query: For the compound shown here, Clc1ccc(C(Cn2ccnc2)OCc2ccc(Sc3ccccc3)cc2)c(Cl)c1 (centres undefined) [Fenticonazole Nitrate] , give the reported Euclidean distance.
Result: 1.51

Query: For the compound shown here, CCc1c(Cl)c(O)c(Cl)c(O)c1C(=O)O[C@H]1[C@H](O)[C@H](OC)[C@H](OC/C2=C\C=C\C[C@H](O)/C(C)=C/[C@H](CC)[C@@H](O[C@@H]3OC(C)(C)[C@@H](OC(=O)C(C)C)[C@H](O)[C@@H]3O)/C(C)=C/C(C)=C/C[C@@H]([C@@H](C)O)OC2=O)O[C@@H]1C [Fidaxomicin] , give the reported Euclidean distance.
Result: 1.64

Query compound follows.
Query: For the compound shown here, CC(=O)Oc1cc(C(C)C)c(OCCN(C)C)cc1C [Moxisylyte hydrochloride] , give the reported Euclidean distance.
Result: 1.83
